target: human NEU3 (Homo sapiens (Human), UniProt Q9UQ49); assay: human NEU3 sialidase inhibition; conditions: read-out: NEU3 IC50; human NEU3
Sequence (Q9UQ49 whole entry): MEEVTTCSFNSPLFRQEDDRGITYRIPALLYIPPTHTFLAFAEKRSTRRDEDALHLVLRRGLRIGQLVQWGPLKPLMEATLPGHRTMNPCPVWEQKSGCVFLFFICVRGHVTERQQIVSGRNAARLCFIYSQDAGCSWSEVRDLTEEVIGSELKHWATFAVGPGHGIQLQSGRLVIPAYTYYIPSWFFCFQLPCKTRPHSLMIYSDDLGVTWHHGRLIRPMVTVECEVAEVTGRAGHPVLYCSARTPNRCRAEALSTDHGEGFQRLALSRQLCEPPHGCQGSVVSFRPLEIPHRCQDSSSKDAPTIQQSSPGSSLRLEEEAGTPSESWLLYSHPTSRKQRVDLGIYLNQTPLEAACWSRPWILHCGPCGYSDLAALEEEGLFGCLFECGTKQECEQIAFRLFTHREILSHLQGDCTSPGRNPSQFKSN
pIC50: −log10 of the molar value.
Each entry gets not satisfied if its pIC50 stays under 4, and satisfied if its pIC50 is 4 or above.

- CC(=O)N[C@H]1[C@H]([C@@H](O)[C@@H](O)CNC(=O)C2CC2)OC(C(=O)O)=C[C@@H]1O: not satisfied
- CCCCCCc1cn(C[C@@H](O)[C@@H](O)[C@@H]2OC(C(=O)O)=C[C@H](O)[C@H]2NC(C)=O)nn1: satisfied
- CC(=O)N[C@H]1C([C@@H](O)[C@@H](O)Cn2cc(OCc3ccccc3)nn2)OC(C(=O)O)=C[C@@H]1O (stereo partly shown): satisfied

Turning now to a further record.
Query: Would you say CC(=O)N[C@H]1[C@H]([C@H](O)[C@H](O)Cn2cc(C(C)(C)O)nn2)OC(C(=O)O)=C[C@@H]1O shows pIC50 at minimum 4?
Response: not satisfied
